Where do these numbers come from? They come from ChEMBL document CHEMBL2040810.

- subject-of-test: Adenosine receptor A2b (Homo sapiens)
- Sequence (whole entry): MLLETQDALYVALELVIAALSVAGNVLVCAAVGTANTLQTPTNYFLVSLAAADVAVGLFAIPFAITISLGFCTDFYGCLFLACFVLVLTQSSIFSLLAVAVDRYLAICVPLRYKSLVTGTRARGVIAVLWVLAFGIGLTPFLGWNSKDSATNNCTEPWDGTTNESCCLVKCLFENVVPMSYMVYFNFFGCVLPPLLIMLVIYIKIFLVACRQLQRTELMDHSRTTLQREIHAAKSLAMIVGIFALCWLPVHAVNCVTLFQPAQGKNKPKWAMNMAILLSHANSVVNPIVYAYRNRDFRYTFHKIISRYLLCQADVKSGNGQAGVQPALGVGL
- assay-details: Displacement of [3H]DPCPX from human adenosine A2B receptor expressed in HEK293 cells at 10 uM after 30 mins by liquid scintillation counting
- Assay type: cell-based
Activity calls are given as the source filed them. The rule behind the calls is not given here.
metric-name: Activity

Solved cases (5 shown):
O=C(Nc1ccccc1)c1cc(=O)c2ccccc2o1 : Active
COc1ccc(NC(=O)c2cc(=O)c3ccccc3o2)cc1OC : Active
COc1ccc(NC(=O)c2coc3ccccc3c2=O)cc1O : > 50%
O=C(Nc1ccc(O)cc1)c1coc2ccccc2c1=O : > 50%
O=C(Nc1ccccc1)c1coc2ccccc2c1=O : > 50%

For the next question, use this compound.
Form field, Activity with Adenosine receptor A2b (Homo sapiens), item O=C(Nc1ccc(O)c(O)c1)c1cc(=O)c2ccccc2o1 : Active

====

- subject-of-test: Adenosine receptor A2b (Homo sapiens)
- assay-details: Displacement of [3H]DPCPX from human adenosine A2B receptor expressed in HEK293 cells at 10 uM after 30 mins by liquid scintillation counting
- Format: cell-based
Calls of active or inactive are those of the source. The rule behind the calls is not given here.
metric-name: Activity

COc1ccc(NC(=O)c2coc3ccccc3c2=O)cc1OC : > 50%
O=C(Nc1ccc(O)c(O)c1)c1coc2ccccc2c1=O : > 50%
O=C(Nc1ccc(O)cc1)c1cc(=O)c2ccccc2o1 : Active
COc1ccc(NC(=O)c2cc(=O)c3ccccc3o2)cc1O : Active
